Reference source for all entries: patent US20120129766A1

- system-name: T1, human β-klotho (human, UniProt Q86Z14 1-1044)
- T1 sequence (looked up): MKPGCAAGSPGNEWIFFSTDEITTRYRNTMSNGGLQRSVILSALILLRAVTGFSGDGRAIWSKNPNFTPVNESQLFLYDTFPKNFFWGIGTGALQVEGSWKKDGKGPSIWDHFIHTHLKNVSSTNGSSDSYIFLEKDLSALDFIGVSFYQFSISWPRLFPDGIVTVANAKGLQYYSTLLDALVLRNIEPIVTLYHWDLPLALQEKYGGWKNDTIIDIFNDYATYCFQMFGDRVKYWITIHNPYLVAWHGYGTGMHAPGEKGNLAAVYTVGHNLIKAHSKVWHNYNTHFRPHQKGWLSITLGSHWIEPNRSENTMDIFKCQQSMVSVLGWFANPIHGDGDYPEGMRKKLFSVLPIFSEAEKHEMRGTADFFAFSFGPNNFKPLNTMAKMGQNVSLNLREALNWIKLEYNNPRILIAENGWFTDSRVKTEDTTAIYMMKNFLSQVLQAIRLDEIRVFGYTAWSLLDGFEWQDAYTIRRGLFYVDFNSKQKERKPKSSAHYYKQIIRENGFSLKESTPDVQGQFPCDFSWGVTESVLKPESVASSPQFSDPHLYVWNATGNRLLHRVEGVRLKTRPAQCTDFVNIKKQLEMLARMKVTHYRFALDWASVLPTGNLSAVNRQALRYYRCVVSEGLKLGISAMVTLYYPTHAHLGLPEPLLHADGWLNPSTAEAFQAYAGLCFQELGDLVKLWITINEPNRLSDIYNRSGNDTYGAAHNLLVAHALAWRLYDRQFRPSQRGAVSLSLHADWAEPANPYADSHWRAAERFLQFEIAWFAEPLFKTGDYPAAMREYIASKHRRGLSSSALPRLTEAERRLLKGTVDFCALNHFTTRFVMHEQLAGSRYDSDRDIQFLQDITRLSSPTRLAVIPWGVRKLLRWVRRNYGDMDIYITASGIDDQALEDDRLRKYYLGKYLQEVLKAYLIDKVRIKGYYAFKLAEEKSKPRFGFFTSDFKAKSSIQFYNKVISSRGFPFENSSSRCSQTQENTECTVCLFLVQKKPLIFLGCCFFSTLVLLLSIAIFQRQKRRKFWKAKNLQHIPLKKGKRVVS
- experiment-notes: cell-based or functional assay
value-type: EC50 (nM), pERK In Cell Western
Hi! Could you send only the number? It should be in nM, unit omitted.

# input Look at this binder and give its reported EC50 (nM), pERK In Cell Western. hFGF21(33-209)-V13 (ligand) DSSPLLQFGGQVRQRYLYTDDDQQTEAHLEIREDGTVGGAAHQSPESLLQLKALKPGVIQILGVKASRFLCQKPDGALYGSLHFDPEACSFRELLLENGYNVYQSEAHGLPLHLPGNRSPHRDPAPQGPARFLPLPGLPPALPEPPGILAPQPPDVGSSDPLAMVGPSQGRSPSYAS
# output 11

# input Find the recorded EC50 (nM), pERK In Cell Western belonging to hFGF21(33-209)-V11 (ligand) DSSPLLQFGGQVRQRYLYTDDDQQTEAHLEIREDGTVGGAAHQSPESLLELKALKPGVIQILGVKTSRFLCQKPDGALYGSLHFDPEACSFRELLLENGYNVYQSEAHGLPLHLPGNRSPHRDPAPQGPARFLPLPGLPPALPEPPGILAPQPPDVGSSDPLAMVGPSQGRSPSYAS and report it.
# output 28

# input Which value of EC50 (nM), pERK In Cell Western has been reported for hFGF21(33-209)-V10 (ligand) DSSPLLQFGGQVRQRYLYTDDAQETEAHLEIREDGTVGGAAHQSPESLLQLKALKPGVIQILGVKASRFLCQKPDGALYGSLHFDPEACSFRELLLENGYNVYQSETHGLPLHLPGNKSPHRDPASQGPARFLPLPGLPPALPEPPGILAPQPPDVGSSDPLAMVGPSQARSPSYAS in the records?
# output 18
